# tested_target: Ba/F3 EGFR-Del19/T790M (Homo sapiens, UniProt P00533, T790M, cells depend on it, form not given)
# Sequence (P00533 with tags, fused parts or gaps DEL746-750/T790M, form open): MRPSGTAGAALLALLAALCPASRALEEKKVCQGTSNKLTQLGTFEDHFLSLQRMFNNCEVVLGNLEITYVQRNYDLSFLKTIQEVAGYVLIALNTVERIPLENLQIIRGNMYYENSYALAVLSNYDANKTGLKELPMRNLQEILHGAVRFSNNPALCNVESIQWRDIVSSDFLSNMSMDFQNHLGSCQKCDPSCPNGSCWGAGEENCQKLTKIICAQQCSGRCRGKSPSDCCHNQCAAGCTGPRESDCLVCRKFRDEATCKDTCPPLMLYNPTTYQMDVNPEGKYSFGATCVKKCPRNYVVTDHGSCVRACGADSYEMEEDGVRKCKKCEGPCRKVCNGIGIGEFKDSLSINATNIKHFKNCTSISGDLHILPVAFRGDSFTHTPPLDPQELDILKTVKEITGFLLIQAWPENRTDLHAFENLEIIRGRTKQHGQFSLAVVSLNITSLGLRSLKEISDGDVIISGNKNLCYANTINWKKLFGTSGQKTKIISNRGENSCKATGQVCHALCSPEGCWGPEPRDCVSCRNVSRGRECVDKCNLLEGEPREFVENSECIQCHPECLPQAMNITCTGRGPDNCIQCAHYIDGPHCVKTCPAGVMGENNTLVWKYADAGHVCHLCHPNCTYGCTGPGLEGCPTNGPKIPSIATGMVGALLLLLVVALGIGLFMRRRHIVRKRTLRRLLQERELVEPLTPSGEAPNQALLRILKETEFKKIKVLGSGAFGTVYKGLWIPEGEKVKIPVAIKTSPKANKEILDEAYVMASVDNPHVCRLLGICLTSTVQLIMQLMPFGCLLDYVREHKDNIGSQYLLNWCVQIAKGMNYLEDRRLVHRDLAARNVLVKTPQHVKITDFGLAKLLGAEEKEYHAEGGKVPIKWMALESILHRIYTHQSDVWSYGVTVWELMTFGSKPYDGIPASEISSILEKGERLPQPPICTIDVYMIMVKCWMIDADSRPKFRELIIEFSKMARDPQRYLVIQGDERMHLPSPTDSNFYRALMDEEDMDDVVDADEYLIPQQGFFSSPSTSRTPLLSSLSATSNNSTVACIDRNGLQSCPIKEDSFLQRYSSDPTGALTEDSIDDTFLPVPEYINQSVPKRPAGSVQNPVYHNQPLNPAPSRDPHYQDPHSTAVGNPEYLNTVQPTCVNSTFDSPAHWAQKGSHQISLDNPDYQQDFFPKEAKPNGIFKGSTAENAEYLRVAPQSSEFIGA
# assay_summary: Ba/F3 viability assay (CellTiter-Glo), DT
# Assay type: cell-based
# test_conditions: anti-proliferation, read-out: BaF3 DT IC50
measured_property: GI50

- molecule: "C[C@H]1CCCOc2c(cnn2C)-c2nccc(n2)Nc2cc3c(cn2)c(N2CCC2)nn31 [(78)]"
  meas_value: "10 to 100 nM"
- molecule: "CCn1cc(-c2nn3c4cc(ncc24)Nc2ccnc(n2)-c2cnn(C)c2OCC[C@@H]3C)cc1CN1CCN(C2CC2)CC1 [(126)]"
  meas_value: "< 10 nM"
- molecule: "CCn1c(CN2CCN(C3CC3)CC2)ccc1-c1nn2c3cc(ncc13)Nc1ccnc(n1)-c1cnn(C)c1OCC[C@@H]2C [(125)]"
  meas_value: "< 10 nM"

[Q] Look at this molecule and give its reported GI50. C[C@H]1CCOc2c(cnn2C)-c2nccc(n2)Nc2cc3c(cn2)c(N2CC[C@@H](N(C)CCF)C2)nn31 [(179)]
[A] < 10 nM

[Q] Requested read-out: GI50. Entry: C[C@H]1CCOc2c(cnn2C)-c2nccc(n2)Nc2cc3c(cn2)c(-c2ccc(CN4CCOCC4)o2)nn31 [(164)]
[A] < 10 nM

[Q] Reported GI50, molecule CCN(CC)CCN(C)c1cc(F)cc(-c2nn3c4cc(ncc24)Nc2ccnc(n2)-c2cnn(C)c2OCC[C@@H]3C)c1 [(132)] : ____
[A] 10 to 100 nM

[Q] Reported GI50, molecule C[C@H]1CCOc2c(cnn2C)-c2nccc(n2)Nc2cc3c(cn2)c(-c2ccc(CN4CCNCC4)n2C)nn31 [(119)] : ____
[A] < 10 nM

[Q] What measured GI50 goes with C[C@H]1CCOc2c(cnn2C)-c2nccc(n2)Nc2cc3c(cn2)c(-c2cccc(CN(C)C)n2)nn31 [(182)] ?
[A] 10 to 100 nM

[Q] State the recorded GI50 for this entry: C[C@H]1CCOc2c(cnn2C)-c2nccc(n2)Nc2cc3c(cn2)c(-c2ncc(CN4CCN(C)CC4)s2)nn31 [(107)]
[A] < 10 nM

[Q] Field request: GI50 | item: C[C@H]1CCOc2c(cnn2C)-c2nccc(n2)Nc2cc3c(cn2)c(-c2cnc(CN4CCN(C)CC4)s2)nn31 [(106)]
[A] 10 to 100 nM

###

// reported GI50 for each item listed
# tested_target: Ba/F3 EGFR-Del19/C797S (Homo sapiens, UniProt P00533, C797S, cells depend on it, form not given)
# Sequence (P00533 with tags, fused parts or gaps DEL746-750/C797S, form open): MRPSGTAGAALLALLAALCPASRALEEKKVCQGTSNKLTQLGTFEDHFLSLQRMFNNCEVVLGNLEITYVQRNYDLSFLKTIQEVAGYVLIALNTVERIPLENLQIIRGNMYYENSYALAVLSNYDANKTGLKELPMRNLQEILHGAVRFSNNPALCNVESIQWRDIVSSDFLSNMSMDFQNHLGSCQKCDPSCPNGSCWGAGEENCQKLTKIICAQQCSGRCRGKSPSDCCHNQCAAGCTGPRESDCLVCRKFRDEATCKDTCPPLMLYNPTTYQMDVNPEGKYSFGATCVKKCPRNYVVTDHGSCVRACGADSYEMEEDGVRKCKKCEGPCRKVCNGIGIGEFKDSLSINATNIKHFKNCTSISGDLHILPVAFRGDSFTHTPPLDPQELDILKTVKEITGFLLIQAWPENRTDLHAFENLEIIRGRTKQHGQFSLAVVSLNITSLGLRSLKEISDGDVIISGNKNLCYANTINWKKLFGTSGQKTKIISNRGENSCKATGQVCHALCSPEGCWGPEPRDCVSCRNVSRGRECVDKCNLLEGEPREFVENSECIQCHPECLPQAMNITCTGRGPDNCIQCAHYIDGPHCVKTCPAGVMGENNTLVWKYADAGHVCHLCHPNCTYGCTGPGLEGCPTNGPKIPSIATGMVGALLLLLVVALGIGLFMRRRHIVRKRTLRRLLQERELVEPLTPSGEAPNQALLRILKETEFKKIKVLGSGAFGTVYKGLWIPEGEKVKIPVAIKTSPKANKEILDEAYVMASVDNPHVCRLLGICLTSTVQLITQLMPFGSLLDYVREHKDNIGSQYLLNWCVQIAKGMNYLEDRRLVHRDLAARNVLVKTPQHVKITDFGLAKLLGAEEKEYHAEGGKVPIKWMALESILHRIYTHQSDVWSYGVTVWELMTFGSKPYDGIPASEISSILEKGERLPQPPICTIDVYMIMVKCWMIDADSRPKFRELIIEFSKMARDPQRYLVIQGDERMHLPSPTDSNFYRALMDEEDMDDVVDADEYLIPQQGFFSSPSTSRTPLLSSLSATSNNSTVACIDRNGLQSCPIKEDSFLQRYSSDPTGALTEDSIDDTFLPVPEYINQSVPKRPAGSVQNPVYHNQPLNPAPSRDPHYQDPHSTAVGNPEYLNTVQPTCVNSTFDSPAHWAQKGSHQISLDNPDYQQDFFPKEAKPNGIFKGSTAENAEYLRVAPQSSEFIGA
# assay_summary: Ba/F3 viability assay (CellTiter-Glo), DC
# Type: cell-based
# test_conditions: anti-proliferation, read-out: BaF3 DC IC50

- compound: "CC1CCCOc2c(cnn2C)-c2nccc(n2)Nc2cc3c(cn2)c(-c2ccc(CN4CCN(C5CC5)CC4)o2)nn31 (stereo not shown) [(87)]"
  GI50: "0.01 to 0.1 µM"

[Q] Would you mind telling me what GI50 value was observed for CC1CCCOc2c(cnn2C)-c2nccc(n2)Nc2cc3c(cn2)c(-c2nnc(CN4CCN(C)CC4)o2)nn31 (stereo not shown) [(94)] ?
[A] 0.1 to 1 µM

[Q] Recorded GI50 of C[C@H]1CCOc2c(cnn2C)-c2nccc(n2)Nc2cc3c(cn2)c(-c2cnc(CN4CCN(C)CC4)s2)nn31 [(106)] , please.
[A] < 0.01 µM

[Q] Sample C[C@H]1CCOc2c(cnn2C)-c2nccc(n2)Nc2cc3c(cn2)c(-c2ccc(CN4CCCC4)n2C)nn31 [(140)] — what was its GI50?
[A] < 0.01 µM

[Q] Looking for the measured GI50 of CC1CCOc2c(cnn2C)-c2nccc(n2)Nc2cc3c(cn2)c(-c2cnn(C4CC4)c2)nn31 (stereo not shown) [(64)] , can you help?
[A] 0.01 to 0.1 µM

[Q] Give the measured GI50 of C[C@H]1CCOc2c(cnn2C)-c2nccc(n2)Nc2cc3c(cn2)c(N2CCOCC2)nn31 [(104)] .
[A] 0.01 to 0.1 µM

[Q] // GI50 lookup, key: CC(C)NCc1ccc(-c2nn3c4cc(ncc24)Nc2ccnc(n2)-c2cnn(C)c2OCC[C@@H]3C)n1C [(188)]
[A] < 0.01 µM

[Q] Name the reported GI50 value associated with the compound C[C@H]1CCOc2c(cnn2C)-c2nccc(n2)Nc2cc3c(cn2)c(-c2cccc(OCCN(C)C)c2)nn31 [(110)]
[A] < 0.01 µM

[Q] Which value of GI50 has been reported for C[C@H]1CCOc2c(cnn2C)-c2nccc(n2)Nc2cc3c(cn2)c(-c2ccc(CN4CC[C@@H](N(C)C)C4)n2C)nn31 [(186)] in the records?
[A] < 0.01 µM

###

# Test system: Ba/F3 Parental
# assay_summary: Ba/F3 viability assay (CellTiter-Glo), parental
# Assay type: cell-based
# test_conditions: Mus musculus, BaF3, anti-proliferation
pIC50: −log10 of the molar value.
measured_property: pIC50

Solved cases below.
- compound: "C[C@H]1CCOc2c(cnn2C)-c2nccc(n2)Nc2cc3c(cn2)c(-c2ncc(CN(C)C)s2)nn31"
  pIC50: "6.00 to 7.00"
- compound: "CCCN1CCN(Cc2ccc(-c3nn4c5cc(ncc35)Nc3ccnc(n3)-c3cnn(C)c3OCC[C@@H]4C)n2C)CC1"
  pIC50: "6.00 to 7.00"
- compound: "CCN(CC)CCn1cc(-c2nn3c4cc(ncc24)Nc2ccnc(n2)-c2cnn(C)c2OCC[C@@H]3C)cn1"
  pIC50: "7.00 to 8.00"
- compound: "CN1CCN(CC2CCN(c3nn4c5cc(ncc35)Nc3ccnc(n3)-c3cnn(C)c3OCCC4)C2)CC1 (stereo not shown)"
  pIC50: "6.00 to 7.00"

[Q] Any idea what its pIC50 is? The compound is `C[C@H]1CCOc2c(cnn2C)-c2nccc(n2)Nc2cc3c(cn2)c(-c2ncc(CN4CCN(C)CC4)s2)nn31`
[A] 6.00 to 7.00

[Q] Report pIC50 for COC(=O)C1CCCN1c1nn2c3cc(ncc13)Nc1ccnc(n1)-c1cnn(C)c1OCCC2 (stereo not shown) please.
[A] ≤ 6.00

[Q] So what's the measured pIC50 for this one? `C[C@H]1CCOc2c(cnn2C)-c2nccc(n2)Nc2cc3c(cn2)c(-c2cccc(CN4CCOCC4)c2)nn31`
[A] 6.00 to 7.00

[Q] # lookup: pIC50 of `C[C@H]1CCOc2c(cnn2C)-c2nccc(n2)Nc2cc3c(cn2)c(-c2cc(CN4CCN(C5CC5)CC4)n(C)c2)nn31`
[A] 6.00 to 7.00

[Q] Query: pIC50; subject: CC1CCOc2c(cnn2C)-c2nccc(n2)Nc2cc3c(cn2)c(-c2ccc(CN4CCN(C)CC4)o2)nn31 (stereo not shown)
[A] 6.00 to 7.00

[Q] Dear colleague, I am looking for the recorded pIC50 of the following compound: CCn1ccc(-c2nn3c4cc(ncc24)Nc2ccnc(n2)-c2cnn(C)c2OCCCC3C)n1 (stereo not shown)
[A] ≤ 6.00

[Q] What does the record list as pIC50 for `CCN(CC)CCOc1ccc(C)c(-c2nn3c4cc(ncc24)Nc2ccnc(n2)-c2cnn(C)c2OCC[C@@H]3C)c1` ?
[A] 6.00 to 7.00

[Q] # get_value(readout='pIC50', item= CC1CCCOc2c(cnn2C)-c2nccc(n2)Nc2cc3c(cn2)c(N2CCC2)nn31 (stereo not shown) )
[A] 6.00 to 7.00

[Q] Which pIC50 value is on record for `C[C@H]1CCOc2c(cnn2C)-c2nccc(n2)Nc2cc3c(cn2)c(N2CC[C@H](O)C2)nn31` ?
[A] 6.00 to 7.00

###

This section presents molecules with their documented IC50 values.
# tested_target: EGFR^L858R (Homo sapiens, UniProt P00533, L858R)
# Sequence (P00533 25-1210 L858R): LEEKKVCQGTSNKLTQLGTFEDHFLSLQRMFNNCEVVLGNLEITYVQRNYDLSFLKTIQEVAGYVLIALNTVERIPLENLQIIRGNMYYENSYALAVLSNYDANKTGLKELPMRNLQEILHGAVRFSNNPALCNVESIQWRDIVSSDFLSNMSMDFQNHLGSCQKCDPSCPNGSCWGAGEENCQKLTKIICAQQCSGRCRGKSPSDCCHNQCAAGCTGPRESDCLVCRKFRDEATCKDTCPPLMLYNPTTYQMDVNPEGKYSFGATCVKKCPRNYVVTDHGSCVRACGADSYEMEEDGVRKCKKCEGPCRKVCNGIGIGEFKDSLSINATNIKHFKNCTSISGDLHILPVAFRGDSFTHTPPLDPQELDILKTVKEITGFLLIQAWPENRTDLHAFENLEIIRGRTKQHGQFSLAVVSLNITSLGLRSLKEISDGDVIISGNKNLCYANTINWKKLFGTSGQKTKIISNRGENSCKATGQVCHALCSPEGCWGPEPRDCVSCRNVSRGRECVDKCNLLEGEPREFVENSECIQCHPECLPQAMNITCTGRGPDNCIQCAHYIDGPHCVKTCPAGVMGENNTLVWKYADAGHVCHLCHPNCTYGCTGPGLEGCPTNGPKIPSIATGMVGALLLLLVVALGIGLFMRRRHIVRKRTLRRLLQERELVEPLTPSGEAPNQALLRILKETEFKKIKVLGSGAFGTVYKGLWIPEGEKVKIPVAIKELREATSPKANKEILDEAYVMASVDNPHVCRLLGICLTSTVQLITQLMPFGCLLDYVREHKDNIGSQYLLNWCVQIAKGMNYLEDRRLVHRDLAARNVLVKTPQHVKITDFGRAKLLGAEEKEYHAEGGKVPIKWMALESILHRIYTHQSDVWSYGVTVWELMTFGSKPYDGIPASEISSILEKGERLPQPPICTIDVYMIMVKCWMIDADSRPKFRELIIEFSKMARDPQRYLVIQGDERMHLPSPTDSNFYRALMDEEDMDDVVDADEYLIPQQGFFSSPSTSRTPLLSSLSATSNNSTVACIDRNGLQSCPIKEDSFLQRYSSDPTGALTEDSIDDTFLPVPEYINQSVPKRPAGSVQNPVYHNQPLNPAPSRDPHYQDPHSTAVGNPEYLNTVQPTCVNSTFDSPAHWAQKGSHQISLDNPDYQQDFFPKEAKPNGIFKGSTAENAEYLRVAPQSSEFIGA
# assay_summary: in vitro kinase assay (HTRF KinEASE-TK kit), L
# test_conditions: kinase inhibition

# example entries with known answers
- molecule: "C[C@H]1CCOc2c(cnn2C)-c2nccc(n2)Nc2cc3c(cn2)c(-c2cccc(N4CC[C@@H](N(C)C)C4)c2)nn31 [(166)]"
  tested_target: "EGFR^L858R (Homo sapiens, UniProt P00533, L858R)"
  measured_property: "IC50"
  meas_value: "< 10 nM"
- molecule: "CCN(CC)CCn1cc(-c2nn3c4cc(ncc24)Nc2ccnc(n2)-c2cnn(C)c2OCC[C@@H]3C)cn1 [(117)]"
  tested_target: "EGFR^L858R (Homo sapiens, UniProt P00533, L858R)"
  measured_property: "IC50"
  meas_value: "< 10 nM"
- molecule: "C[C@H]1CCOc2c(cnn2C)-c2nccc(n2)Nc2cc3c(cn2)c(-c2ccc(CN(C)C)cc2)nn31 [(176)]"
  tested_target: "EGFR^L858R (Homo sapiens, UniProt P00533, L858R)"
  measured_property: "IC50"
  meas_value: "< 10 nM"
- molecule: "CCN(CC)CCOc1cccc(-c2nn3c4cc(ncc24)Nc2ccnc(n2)-c2cnn(C)c2OCC[C@@H]3C)c1C [(158)]"
  tested_target: "EGFR^L858R (Homo sapiens, UniProt P00533, L858R)"
  measured_property: "IC50"
  meas_value: "100 to 1000 nM"
- molecule: "C[C@H]1CCOc2c(cnn2C)-c2nccc(n2)Nc2cc3c(cn2)c(-c2cccc(CN4CCOCC4)c2)nn31 [(177)]"
  tested_target: "EGFR^L858R (Homo sapiens, UniProt P00533, L858R)"
  measured_property: "IC50"
  meas_value: "10 to 100 nM"
- molecule: "CC(C)n1ncc2c1OCCCC(C)n1nc(N3CCC3)c3cnc(cc31)Nc1ccnc-2n1 (stereo not drawn) [(74)]"
  tested_target: "EGFR^L858R (Homo sapiens, UniProt P00533, L858R)"
  measured_property: "IC50"
  meas_value: "100 to 1000 nM"

[Q] Look up IC50 with EGFR^L858R (Homo sapiens, UniProt P00533, L858R) for this molecule: C[C@H]1CCOc2c(cnn2C)-c2nccc(n2)Nc2cc3c(cn2)c(-c2ccc(CN4CC[C@H](N(C)C)C4)n2C)nn31 [(187)]
[A] < 10 nM

[Q] I'm curious: which IC50 was measured for C[C@H]1CCOc2c(cnn2C)-c2nccc(n2)Nc2cc3c(cn2)c(-c2cccc(N4CCC(N5CCN(C)CC5)CC4)c2)nn31 [(173)] tested on EGFR^L858R (Homo sapiens, UniProt P00533, L858R)?
[A] < 10 nM

[Q] Look up IC50 with EGFR^L858R (Homo sapiens, UniProt P00533, L858R) for this molecule: CN(C)CC1CCCN1c1nn2c3cc(ncc13)Nc1ccnc(n1)-c1cnn(C)c1OCCC2 (stereo not drawn) [(11)]
[A] 100 to 1000 nM

This collection of values is drawn from patent US20230148005A1.
